- Test system: M21 human melanoma cells
- experiment-summary: Inhibition of integrin-mediated M21 cell adhesion to vitronectin
- Assay type: cell-based
- condition-description: Homo sapiens, M21; at 3 μM; 2 mM MnCl2; relative to vehicle (PBS)
Below is a list of entries, each paired with its recorded inhibition at 3 µM value.
Number first, unit second.

Some entries whose results are on file:
>  <entry-smiles>
N=C(N)NCCCOc1ccc(C[C@H](NS(=O)(=O)c2ccccc2)C(=O)NO)cc1

>  <experimental-value>
64.3%

$$$$
>  <entry-smiles>
NCCCOc1ccc(C[C@H](NS(=O)(=O)c2ccc(-c3ccccc3)cc2)C(=O)O)cc1

>  <experimental-value>
28.9%

$$$$
>  <entry-smiles>
O=C(NO)[C@H](Cc1ccc(O)cc1)NS(=O)(=O)c1ccc(-c2ccccc2)cc1

>  <experimental-value>
28.8%

$$$$
>  <entry-smiles>
NCCCOc1ccc(C[C@H](NS(=O)(=O)c2ccc(-c3ccccc3)cc2)C(=O)NO)cc1

>  <experimental-value>
35.8%

$$$$
>  <entry-smiles>
N=C(N)NCCCOc1ccc(C[C@H](NS(=O)(=O)c2ccc(-c3ccccc3)cc2)C(=O)O)cc1

>  <experimental-value>
76.7%

$$$$

# context switch: different compound, same inhibition at 3 µM
Prompt: Notebook entry, M21 human melanoma cells assay: inhibition at 3 µM of N=C(N)NCCCOc1ccc(C[C@H](NS(=O)(=O)c2ccccc2)C(=O)O)cc1 = ?
Response: 62.5%

----------
- target-entity: purified human integrin proteins αvβ3 (Homo sapiens, UniProt P05106+P06756)
- Construct: purchased Sino Biological Europe GmbH, Eschborn, Germany
- experiment-summary: Solid-phase integrin binding assay (competition with biotinylated vitronectin)
- condition-description: at 0.1 μM; read-out: Inhibition % of biotinylated vitronectin specific binding to αvβ3
- Protocol: As regarding to the binding affinity towards αvβ3, the library was screened using an in vitro solid-phase assays were performed at 10, 1.0 and 0.1 μM concentration of the test compounds for their ability to compete with biotinylated vitronectin for binding to pure αvβ3 integrin isolated from human placenta, and % binding activity is reported in Table 2. […]
quantity: inhibition at 0.1 µM (%)
All answers are understood in %, so give the number only.

Some entries whose results are on file:
>  <entry-smiles>
NCCCOc1ccc(C[C@H](NS(=O)(=O)c2ccc(-c3ccccc3)cc2)C(=O)O)cc1

>  <target-entity>
purified human integrin proteins αvβ3 (Homo sapiens, UniProt P05106+P06756)

>  <quantity>
inhibition at 0.1 µM

>  <experimental-value>
26

$$$$
>  <entry-smiles>
N=C(N)NCCCOc1ccc(C[C@H](NS(=O)(=O)c2ccc(-c3ccccc3)cc2)C(=O)O)cc1

>  <target-entity>
purified human integrin proteins αvβ3 (Homo sapiens, UniProt P05106+P06756)

>  <quantity>
inhibition at 0.1 µM

>  <experimental-value>
8

$$$$
>  <entry-smiles>
NCCCOc1ccc(C[C@H](NS(=O)(=O)c2ccc(-c3ccccc3)cc2)C(=O)NO)cc1

>  <target-entity>
purified human integrin proteins αvβ3 (Homo sapiens, UniProt P05106+P06756)

>  <quantity>
inhibition at 0.1 µM

>  <experimental-value>
21

$$$$
>  <entry-smiles>
O=C(NO)[C@H](Cc1ccc(O)cc1)NS(=O)(=O)c1ccc(-c2ccccc2)cc1

>  <target-entity>
purified human integrin proteins αvβ3 (Homo sapiens, UniProt P05106+P06756)

>  <quantity>
inhibition at 0.1 µM

>  <experimental-value>
20

$$$$
>  <entry-smiles>
N=C(N)NCCCOc1ccc(C[C@H](NS(=O)(=O)c2ccccc2)C(=O)NO)cc1

>  <target-entity>
purified human integrin proteins αvβ3 (Homo sapiens, UniProt P05106+P06756)

>  <quantity>
inhibition at 0.1 µM

>  <experimental-value>
0

$$$$
>  <entry-smiles>
NCCCOc1ccc(C[C@H](NS(=O)(=O)c2ccc([N+](=O)[O-])cc2)C(=O)O)cc1

>  <target-entity>
purified human integrin proteins αvβ3 (Homo sapiens, UniProt P05106+P06756)

>  <quantity>
inhibition at 0.1 µM

>  <experimental-value>
0

$$$$

We now examine a further molecule.
Prompt: For the molecule shown here, N=C(N)NCCCOc1ccc(C[C@H](NS(=O)(=O)c2ccccc2)C(=O)O)cc1 , give the reported inhibition at 0.1 µM.
Response: 0
